- MEASURED TARGET: GST-tagged-Wee1 kinase (Homo sapiens, UniProt P30291)
- Sequence (P30291 whole entry): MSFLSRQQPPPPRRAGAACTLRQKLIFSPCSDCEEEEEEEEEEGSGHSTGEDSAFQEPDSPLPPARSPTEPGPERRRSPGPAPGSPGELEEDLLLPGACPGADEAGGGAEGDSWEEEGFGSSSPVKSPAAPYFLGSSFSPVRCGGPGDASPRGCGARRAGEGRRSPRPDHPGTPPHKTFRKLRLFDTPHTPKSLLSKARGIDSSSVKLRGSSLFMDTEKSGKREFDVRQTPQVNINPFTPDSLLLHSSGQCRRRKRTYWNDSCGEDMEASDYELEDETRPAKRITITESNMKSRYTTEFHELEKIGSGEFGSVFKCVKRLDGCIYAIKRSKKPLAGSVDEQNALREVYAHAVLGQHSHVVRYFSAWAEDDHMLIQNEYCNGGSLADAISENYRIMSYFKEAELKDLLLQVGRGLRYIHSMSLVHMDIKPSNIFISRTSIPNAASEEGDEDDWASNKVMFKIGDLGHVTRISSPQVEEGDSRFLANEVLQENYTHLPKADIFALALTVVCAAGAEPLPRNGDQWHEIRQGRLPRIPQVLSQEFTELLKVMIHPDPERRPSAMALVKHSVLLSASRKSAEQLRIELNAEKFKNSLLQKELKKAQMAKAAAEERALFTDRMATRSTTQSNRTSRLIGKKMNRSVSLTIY
- TEST PROTOCOL: Wee1 time-resolved fluorescence equilibrium binding assay (displacement of Oregon Green-labeled ATP-competitive kinase probe)
pKi: −log10 of the molar value.
Measured pKi by item

[
  {
    "COMPOUND": "Cc1nn(-c2ncccc2Cl)c(=O)c2cnc(Nc3ccc4c(c3)CN(C)CC4(C)C)nc12 [Example 365]",
    "MEASURED TARGET": "GST-tagged-Wee1 kinase (Homo sapiens, UniProt P30291)",
    "pKi": 8.54
  },
  {
    "COMPOUND": "Cc1nn(-c2c(Cl)cccc2Cl)c(=O)c2cnc(Nc3ccc4c(c3)CCN(C)C4(C)C)nc12 [Example 453]",
    "MEASURED TARGET": "GST-tagged-Wee1 kinase (Homo sapiens, UniProt P30291)",
    "pKi": 9.44
  },
  {
    "COMPOUND": "O=c1c2cnc(Nc3ccc4c(c3)CNCC4)nc2c(C(F)F)nn1-c1c(Cl)cccc1Cl [Example 410]",
    "MEASURED TARGET": "GST-tagged-Wee1 kinase (Homo sapiens, UniProt P30291)",
    "pKi": 9.00
  },
  {
    "COMPOUND": "CN1CCN(c2ccc(Nc3ncc4c(=O)n(-c5c(Cl)cccc5Cl)nc(-c5ccnc(C(=O)N(C)C)c5)c4n3)cc2)CC1 [Example 248]",
    "MEASURED TARGET": "GST-tagged-Wee1 kinase (Homo sapiens, UniProt P30291)",
    "pKi": 9.40
  },
  {
    "COMPOUND": "Cc1nn(-c2c(Cl)cccc2Cl)c(=O)c2cnc(Nc3cccc(N4CCN(CCCCl)CC4)c3)nc12 [Example 507]",
    "MEASURED TARGET": "GST-tagged-Wee1 kinase (Homo sapiens, UniProt P30291)",
    "pKi": 8.62
  },
  {
    "COMPOUND": "CN1CCN(c2ccc(Nc3ncc4c(=O)n(-c5ccccc5)nc(-c5ccco5)c4n3)cc2)CC1 [Example 34]",
    "MEASURED TARGET": "GST-tagged-Wee1 kinase (Homo sapiens, UniProt P30291)",
    "pKi": 8.40
  },
  {
    "COMPOUND": "CC(=O)N1CCc2ccc(Nc3ncc4c(=O)n(-c5c(Cl)cccc5Cl)nc(C(F)F)c4n3)cc2C1 [Example 477]",
    "MEASURED TARGET": "GST-tagged-Wee1 kinase (Homo sapiens, UniProt P30291)",
    "pKi": 9.17
  }
]

----------
- MEASURED TARGET: GST-tagged-Wee1 kinase (Homo sapiens, UniProt P30291)
- TEST PROTOCOL: Wee1 time-resolved fluorescence equilibrium binding assay (displacement of Oregon Green-labeled ATP-competitive kinase probe)
Measured Ki by item
QUANTITY MEASURED: Ki

[
  {
    "COMPOUND": "CNC(C)c1cccc(-c2nn(-c3c(Cl)cccc3Cl)c(=O)c3cnc(Nc4ccc(N5CCN(C)CC5)cc4)nc23)c1 (stereo not drawn)",
    "VALUE OBSERVED": "0.02 nM"
  },
  {
    "COMPOUND": "CN1CCN(c2ccc(Nc3ncc4c(=O)n(-c5cccc(Cl)c5)nc(-c5ccc(Cl)cc5Cl)c4n3)cc2)CC1",
    "VALUE OBSERVED": "520 nM"
  },
  {
    "COMPOUND": "CN1Cc2cc(Nc3ncc4c(=O)n(-c5c(Cl)cccc5Cl)nc(-c5ccn(C)n5)c4n3)ccc2C2(CC2)C1",
    "VALUE OBSERVED": "0.05 nM"
  },
  {
    "COMPOUND": "Cc1cccc(Cl)c1-n1nc(C)c2nc(Nc3ccc(NC4CCNCC4)cc3)ncc2c1=O",
    "VALUE OBSERVED": "0.3 nM"
  },
  {
    "COMPOUND": "O=c1c2cnc(Nc3ccc(N4CCNCC4)cc3)nc2c(-c2nccs2)nn1-c1ncccc1Cl",
    "VALUE OBSERVED": "6.5 nM"
  },
  {
    "COMPOUND": "CN1CCN(c2ccc(Nc3ncc4c(=O)n(-c5ccccc5Cl)nc(-c5cccc(F)c5)c4n3)cc2)CC1",
    "VALUE OBSERVED": "0.2 nM"
  },
  {
    "COMPOUND": "CN1Cc2cc(Nc3ncc4c(=O)n(-c5c(Cl)cccc5Cl)nc(-c5ccncc5)c4n3)ccc2C(C)(C)C1",
    "VALUE OBSERVED": "0.3 nM"
  },
  {
    "COMPOUND": "CCc1nn(-c2c(Cl)cccc2Cl)c(=O)c2cnc(Nc3ccc4c(c3)CNCC43CC3)nc12",
    "VALUE OBSERVED": "0.25 nM"
  },
  {
    "COMPOUND": "CN1CCN(c2ccc(Nc3ncc4c(=O)n(-c5ccccc5Cl)nc(-c5cccnc5)c4n3)cc2)CC1",
    "VALUE OBSERVED": "0.5 nM"
  },
  {
    "COMPOUND": "CCc1nn(-c2c(Cl)cccc2Cl)c(=O)c2cnc(Nc3ccc4c(c3)CN(C)CC4)nc12",
    "VALUE OBSERVED": "0.86 nM"
  },
  {
    "COMPOUND": "CN1CCN(c2ccc(Nc3ncc4c(=O)n(-c5c(Cl)cccc5Cl)nc(-c5cn(C)cn5)c4n3)cc2)CC1",
    "VALUE OBSERVED": "0.72 nM"
  },
  {
    "COMPOUND": "Cn1cnc(-c2nn(-c3c(Cl)cccc3Cl)c(=O)c3cnc(Nc4ccc(N5CCNCC5)cc4)nc23)c1",
    "VALUE OBSERVED": "0.32 nM"
  },
  {
    "COMPOUND": "Cc1nn(-c2ccccc2Cl)c(=O)c2cnc(Nc3ccc(N4CCN(CCCN(C)C)CC4)cc3)nc12",
    "VALUE OBSERVED": "0.7 nM"
  },
  {
    "COMPOUND": "O=c1c2cnc(Nc3ccc4c(c3)CNCC4)nc2c(-c2nccs2)nn1-c1c(Cl)cccc1Cl",
    "VALUE OBSERVED": "0.21 nM"
  },
  {
    "COMPOUND": "Cc1nn(-c2c(Cl)cccc2Cl)c(=O)c2cnc(Nc3ccc(N4CCNC(=O)C4)cc3)nc12",
    "VALUE OBSERVED": "0.46 nM"
  }
]

----------
- MEASURED TARGET: GST-tagged-Wee1 kinase (Homo sapiens, UniProt P30291)
- TEST PROTOCOL: Wee1 time-resolved fluorescence equilibrium binding assay (displacement of Oregon Green-labeled ATP-competitive kinase probe)
pKi: −log10 of the molar value.
QUANTITY MEASURED: pKi

[
  {
    "SAMPLE SMILES": "CN1CCN(c2ccc(Nc3ncc4c(=O)[nH]nc(-c5ccccc5)c4n3)cc2)CC1",
    "VALUE OBSERVED": 7.60
  },
  {
    "SAMPLE SMILES": "CC(C)n1cc(-c2nn(-c3c(Cl)cccc3Cl)c(=O)c3cnc(Nc4ccc5c(c4)CNCC54CC4)nc23)cn1",
    "VALUE OBSERVED": 9.66
  },
  {
    "SAMPLE SMILES": "C=CCn1nc(-c2ccccc2)c2nc(Nc3ccc(N4CCN(C(C)C)CC4)c(OC)c3)ncc2c1=O",
    "VALUE OBSERVED": 8.52
  },
  {
    "SAMPLE SMILES": "COc1ccccc1-n1nc(-c2ccc(Cl)cc2Cl)c2nc(Nc3ccc(N4CCN(C)CC4)cc3)ncc2c1=O",
    "VALUE OBSERVED": 6.59
  },
  {
    "SAMPLE SMILES": "CCc1nn(-c2c(Cl)cccc2Cl)c(=O)c2cnc(Nc3ccc(CN4CCN(C)CC4)cc3)nc12",
    "VALUE OBSERVED": 9.06
  },
  {
    "SAMPLE SMILES": "CN1CCN(c2ccc(Nc3ncc4c(=O)n(-c5c(Cl)cccc5Cl)nc(CO)c4n3)cc2)CC1",
    "VALUE OBSERVED": 9.38
  },
  {
    "SAMPLE SMILES": "CN(C)Cc1ccc(Nc2ncc3c(=O)n(-c4ccccc4Cl)nc(-c4cccs4)c3n2)cc1",
    "VALUE OBSERVED": 9.10
  }
]

----------
- MEASURED TARGET: GST-tagged-Wee1 kinase (Homo sapiens)
- TEST PROTOCOL: Wee1 time-resolved fluorescence equilibrium binding assay (displacement of Oregon Green-labeled ATP-competitive kinase probe)
- Experimental: Wee1 kinase was assayed using a time-resolved fluorescence equilibrium binding assay monitoring displacement of a rapidly reversible Oregon Green-labeled ATP-competitive kinase probe (N-(2-(2-(2-(4-(4-(5-chloro-4-(2-(1-hydroxycyclobutyl)thiazol-5-yl)-1H-pyrrolo[2,3-b]pyridin-2-yl)phenyl)piperazin-1-yl)ethoxy)ethoxy)ethyl)-2′,7′-difluoro-3′,6′-dihydroxy-3-oxo-3H-spiro[isobenzofuran-1,9′-xanthene]-5-carboxamide) by competitive Wee1 inhibitors.
pKi: −log10 of the molar value.

[
  {
    "COMPOUND": "CCc1nn(-c2c(Cl)cccc2Cl)c(=O)c2cnc(Nc3ccc4c(c3)CCN(C)C4(C)C)nc12",
    "pKi": 9.49
  },
  {
    "COMPOUND": "CCCc1nn(-c2ccccc2Cl)c(=O)c2cnc(Nc3ccc(N4CCN(C)CC4)cc3)nc12",
    "pKi": 9.00
  },
  {
    "COMPOUND": "CN1CCN(c2ccc(Nc3ncc4c(=O)n(-c5c(Cl)cccc5Cl)ncc4n3)cc2)CC1",
    "pKi": 9.31
  },
  {
    "COMPOUND": "CN1CCN(c2ccc(Nc3ncc4c(=O)n(-c5ccncc5Cl)nc(-c5ccccn5)c4n3)cc2)CC1",
    "pKi": 7.89
  },
  {
    "COMPOUND": "Cc1nn(-c2c(Cl)cccc2Cl)c(=O)c2cnc(Nc3cccc(N4CCN(C5CCC5)CC4)c3)nc12",
    "pKi": 8.70
  },
  {
    "COMPOUND": "CN1CCN(c2ccc(Nc3ncc4c(=O)n(-c5ccccc5)nc(-c5ccncn5)c4n3)cc2)CC1",
    "pKi": 7.72
  },
  {
    "COMPOUND": "Cc1nn(-c2c(Cl)cccc2Cl)c(=O)c2cnc(Nc3ccc(C4CCCN4)cc3)nc12 (stereo not drawn)",
    "pKi": 9.30
  },
  {
    "COMPOUND": "CCc1nn(-c2c(Cl)cccc2Cl)c(=O)c2cnc(Nc3ccc4c(c3)CCNC4(C)C)nc12",
    "pKi": 9.47
  },
  {
    "COMPOUND": "Cc1nn(-c2c(F)cccc2Cl)c(=O)c2cnc(Nc3ccc(N4CCN(C)CC4)cc3)nc12",
    "pKi": 8.72
  },
  {
    "COMPOUND": "O=c1c2cnc(Nc3ccc4c(c3)CNCC43CC3)nc2c(-c2nccs2)nn1-c1c(Cl)cccc1Cl",
    "pKi": 9.47
  },
  {
    "COMPOUND": "C=CCn1nc(C2CC(F)(F)C2)c2nc(Nc3ccc(N4CCN(C)CC4)cc3)ncc2c1=O",
    "pKi": 6.64
  },
  {
    "COMPOUND": "CN1CCN(c2ccc(Nc3ncc4c(=O)n(-c5ccccc5Cl)nc(-c5ccoc5)c4n3)cc2)CC1",
    "pKi": 9.30
  },
  {
    "COMPOUND": "CN1CCN(c2ccc(Nc3ncc4c(=O)n(-c5ccccc5Cl)nc(-c5ccc(Cl)cc5Cl)c4n3)cc2)CC1",
    "pKi": 7.62
  },
  {
    "COMPOUND": "CC(C)n1nc(-c2ccncc2)c2nc(Nc3ccc4c(c3)CN(C)CC43CC3)ncc2c1=O",
    "pKi": 8.49
  },
  {
    "COMPOUND": "Cc1nn(-c2c(Cl)cccc2Cl)c(=O)c2cnc(Nc3ccc(N4CC5CNCC5C4)cc3)nc12 (stereo not drawn)",
    "pKi": 9.57
  }
]
